Where do these numbers come from? They come from patent US20220183287A1.

Consider the following compounds; for each one, report its Shoot height Trial 2.
- Tested on: cucumber (Cucumis sativus) plants
- assayExplanation: Greenhouse trial: cucumber plant vigor in treated soil
- conditionSummary: 0.05%; 28 ml per 300 grams soil

// known answers, use as guide
{"compound": "CCOC(=O)c1ccccc1 [EB, Ethyl benzoate]", "Shoot height Trial 2": "7.5 ^a cm"}
{"compound": "C=COC(=O)c1ccccc1 [VB, Vinyl benzoate]", "Shoot height Trial 2": "8.3 ^a cm"}
{"compound": "COC(=O)c1ccccc1 [MB, Methyl benzoate]", "Shoot height Trial 2": "8.0 ^a cm"}

Field: next compound
Ask: Give recorded Shoot height Trial 2. COC(=O)c1cccc(C)c1 [M3MB, Methyl 3-methylbenzoate]
Reply: 7.9 ^a cm
